For each entry below, report its melting point value.

Input line: If you can, please state the reported melting point value of CN(C)C(=O)c1ccc(N2CCN(c3ccc4c(c3)COC3(CCN(C5CCC5)CC3)O4)C2=O)cc1 [Example 244] .
Output line: 243 to 245 °C

Input line: If you can, please state the reported melting point value of CNC(=O)c1ccc(Oc2ccc3c(c2)CCC2(CCN(C4CCC4)CC2)O3)cc1 [Example 282] .
Output line: 179 to 181 °C

Input line: If you can, please state the reported melting point value of COc1ncc(-c2ccc3c(c2)COC2(CCN(C4CCC4)CC2)O3)c(C)c1C [Example 800] .
Output line: 233 to 235 °C

Input line: If you can, please state the reported melting point value of O=c1[nH]cc(-c2ccc3c(c2)COC2(CCN(C4CCC4)CC2)O3)cc1Cl [Example 658] .
Output line: 221.5 to 223.7 °C

Input line: If you can, please state the reported melting point value of O=C(C1CCN(c2ccc3c(c2)CCC2(CCN(C4CCC4)CC2)O3)CC1)N1CCCC1 [Example 418] .
Output line: 290 to 292 °C

Input line: If you can, please state the reported melting point value of FC1(F)CCN(c2ccc3c(c2)COC2(CCN(C4CCC4)CC2)O3)C1 [Example 423] .
Output line: 217 to 221 °C

Input line: If you can, please state the reported melting point value of CCOCC1CCN(c2ccc3c(c2)COC2(CCN(C4CCC4)CC2)O3)CC1 [Example 627] .
Output line: 85.2 to 86.5 °C

Input line: If you can, please state the reported melting point value of O=C(C1CC(O)(c2ccc3c(c2)COC2(CCN(C4CCC4)CC2)O3)C1)N1CCCC1 (centres unmarked) [Example 482] .
Output line: 157 to 159 °C

Input line: If you can, please state the reported melting point value of O=C(Cc1ccccn1)Nc1ccc2c(c1)COC1(CCN(C3CCC3)CC1)O2 [Example 322] .
Output line: 166 to 168 °C

Input line: If you can, please state the reported melting point value of O=C(c1ccc(Nc2ccc3c(c2)COC2(CCN(C4CCC4)CC2)O3)cc1)N1CC[C@@H](O)C1 [Example 215] .
Output line: 114 to 116 °C

Input line: If you can, please state the reported melting point value of CN(C)C(=O)c1cc(COc2ccc3c(c2)CCC2(CCN(C4CCC4)CC2)O3)ccn1 [Example 623] .
Output line: 165 to 167 °C

Input line: If you can, please state the reported melting point value of O=C(NC1CCOCC1)c1ccc(-c2ccc3c(c2)COC2(CCN(C4CCC4)CC2)O3)cc1O [Example 705] .
Output line: 193 to 195 °C

Input line: If you can, please state the reported melting point value of Cc1nn(C)c(C)c1-c1ccc2c(c1)COC1(CCN(C3CCC3)CC1)O2 [Example 199] .
Output line: 140 to 143 °C

Input line: If you can, please state the reported melting point value of Cc1nn(C)c(C)c1-c1ccc2c(c1)CCC1(CCN(C3CCC3)CC1)O2 [Example 171] .
Output line: 47 to 49 °C

Input line: If you can, please state the reported melting point value of O=c1cccc(-c2ccc3c(c2)COC2(CCN(C4CCC4)CC2)O3)[nH]1 [Example 476] .
Output line: 207 to 209 °C

Input line: If you can, please state the reported melting point value of COc1cc(C(N)=O)ccc1-c1ccc2c(c1)COC1(CCN(C3CCC3)CC1)O2 [Example 712] .
Output line: 122 to 124 °C

Input line: If you can, please state the reported melting point value of [O-][S+]1CCC(c2ccc3c(c2)COC2(CCN(C4CCC4)CC2)O3)CC1 (centres unmarked) [Example 473] .
Output line: 187 to 189 °C
